Data origin, for the record: patent US12528832B2

# experiment: Stability test of salt form screening (25° C., R.T./75% RH, light; HPLC, XRPD)
# Format: physicochemical
# condition-parameters: Light, room temperature, 5 Days
# Procedure: Take an appropriate amount of the compound into an 8 mL glass bottle, and then place it at room temperature (25° C., open), high humidity (room temperature/75% RH, open) and light (room temperature, white light: 6980 lux, UV 282 μW/cm2). Take samples for testing on the 5th, 10th, and 30th day (HPLC, XRPD).
Structures can show the parent of a compound that is named as a salt.
Task for the reader: assign each of the following molecules its reported Total impurities (%).
Answers are plain numbers, in %.

# molecule, Total impurities (%)
rows = [
    ("Cc1c(S(C)(=O)=O)c(-c2cc(F)cc(N3CCN(c4ccc(NS(=O)(=O)c5ccc(N[C@H](CCN6CCC(C(=O)OCCCP(=O)(O)O)CC6)CSc6ccccc6)c(S(=O)(=O)C(F)(F)F)c5)cc4)CC3)c2)c(-c2ccc(Cl)cc2)n1C(C)C [Amorphous form XV of maleate salt]", 1.33),
]

Field: Total impurities (%). Fill in for each record below.
1. Cc1c(S(C)(=O)=O)c(-c2cc(F)cc(N3CCN(c4ccc(NS(=O)(=O)c5ccc(N[C@H](CCN6CCC(C(=O)OCCCP(=O)(O)O)CC6)CSc6ccccc6)c(S(=O)(=O)C(F)(F)F)c5)cc4)CC3)c2)c(-c2ccc(Cl)cc2)n1C(C)C [Amorphous form XII of potassium salt]
2. Cc1c(S(C)(=O)=O)c(-c2cc(F)cc(N3CCN(c4ccc(NS(=O)(=O)c5ccc(N[C@H](CCN6CCC(C(=O)OCCCP(=O)(O)O)CC6)CSc6ccccc6)c(S(=O)(=O)C(F)(F)F)c5)cc4)CC3)c2)c(-c2ccc(Cl)cc2)n1C(C)C [Amorphous form XVI of meglumine salt]
3. Cc1c(S(C)(=O)=O)c(-c2cc(F)cc(N3CCN(c4ccc(NS(=O)(=O)c5ccc(N[C@H](CCN6CCC(C(=O)OCCCP(=O)(O)O)CC6)CSc6ccccc6)c(S(=O)(=O)C(F)(F)F)c5)cc4)CC3)c2)c(-c2ccc(Cl)cc2)n1C(C)C [Amorphous form XIII of sodium salt]

Reply |
1. 2.09
2. 1.33
3. 2.20
